Reference for the values: patent US20210277137A1

NFκB activation EC50 (SEAP, OD655) in HEK293 blue CD40 NFκB reporter cells for assorted binders
- Test Target: human CD40 on cells (human, UniProt P25942 21-277)
- Sequence (P25942 21-277 limits assumed): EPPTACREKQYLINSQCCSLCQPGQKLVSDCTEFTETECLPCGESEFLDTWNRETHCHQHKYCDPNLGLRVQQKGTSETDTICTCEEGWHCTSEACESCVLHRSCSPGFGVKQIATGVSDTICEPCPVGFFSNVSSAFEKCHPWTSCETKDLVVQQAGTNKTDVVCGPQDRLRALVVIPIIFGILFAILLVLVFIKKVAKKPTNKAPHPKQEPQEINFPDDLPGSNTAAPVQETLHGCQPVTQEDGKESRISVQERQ
- Method Description: cell-based or functional assay
Give just the number in µg/mL; leave the unit off.

Use the examples below as a reference point.
| Binder | Recorded Number |
| --- | --- |
| Humanized muAb6 #2 (antibody, V domains shown) VH: EVQLVQSGAEVKKPGSSVKVSCKASGYTFTSYWMHWVRQAPGQGLEWIGNIDPSNGETHYNQKFKDRVTITVDKSTSTAYMELSSLRSEDTAVYYCARERIYYSGSTYDGYFDVWGQGTTVTVSS VL: DIQLTQSPSFLSASVGDRVTITCSASSSLSYMHWYQQKPGKSPKRWIYDTSKLASGVPSRFSGSGSGTEYTLTISSLQPEDFATYYCQQWSSNPWTFGGGTKVEIK | 1.21 |
| Humanized muAb9 #4 (antibody, V domains shown) VH: EVQLQESGPGLVKPSETLSLTCTVSGYSITSNYYWNWIRQPPGKGLEWMGYIRYDGSNNYNPSLKNRITISRDTSKNQFSLKLSSVTAADTAVYYCARLDYWGQGTTVTVSS VL: DAVMTQTPLSLSVTPGQPASISCRSSQSLENTNGNTFLNWYLQKPGQSPQLLIYRVSNRFSGVPDRFSGSGSGTDFTLKISRVEAEDVGVYYCLQVTHVPFTFGQGTKLEIK | 5.55 |

// switching to the query binder
Item under review: Humanized muAb9 #2 (antibody, V domains shown) VH: EVQLQESGPGLVKPSETLSLTCTVSGYSITSNYYWNWIRQPPGKGLEWMGYIRYDGSNNYNPSLKNRVTISRDTSKNQFSLKLSSVTAADTAVYYCARLDYWGQGTTVTVSS VL: DAVMTQTPLSLSVTPGQPASISCRSSQSLENTNGNTFLNWFLQKPGQSPQLLIYRVSNRFSGVPDRFSGSGSGTDFTLKISRVEAEDVGVYFCLQVTHVPFTFGQGTKLEIK . Reported NFκB activation EC50 (SEAP, OD655) in HEK293 blue CD40 NFκB reporter cells?
0.29
